STUDY_SYSTEM: apo-human transferrin (apo-hTf) (Homo sapiens, UniProt P02787)
Sequence (P02787 20-698): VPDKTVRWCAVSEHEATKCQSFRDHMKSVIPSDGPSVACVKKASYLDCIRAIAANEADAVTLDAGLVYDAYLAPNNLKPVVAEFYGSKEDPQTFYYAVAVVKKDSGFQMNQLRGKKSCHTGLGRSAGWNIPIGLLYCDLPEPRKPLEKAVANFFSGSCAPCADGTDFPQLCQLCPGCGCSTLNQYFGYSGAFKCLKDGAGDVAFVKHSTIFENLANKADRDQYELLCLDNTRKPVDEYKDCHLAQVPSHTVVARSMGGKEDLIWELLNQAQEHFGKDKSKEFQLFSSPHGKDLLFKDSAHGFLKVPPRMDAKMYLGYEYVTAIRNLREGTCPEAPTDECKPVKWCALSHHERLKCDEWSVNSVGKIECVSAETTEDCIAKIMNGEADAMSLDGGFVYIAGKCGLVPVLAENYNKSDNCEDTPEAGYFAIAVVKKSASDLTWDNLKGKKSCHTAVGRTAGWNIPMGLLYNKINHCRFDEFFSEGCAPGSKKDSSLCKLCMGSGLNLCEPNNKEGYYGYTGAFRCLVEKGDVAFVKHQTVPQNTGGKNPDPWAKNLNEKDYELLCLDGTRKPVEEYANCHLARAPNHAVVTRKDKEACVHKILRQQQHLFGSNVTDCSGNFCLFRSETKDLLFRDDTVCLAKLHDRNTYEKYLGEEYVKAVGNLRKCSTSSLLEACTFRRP
ASSAY_EXPLANATION: Far-UV circular dichroism titration of apo-hTf, secondary structure content
CONDITION: compound concentration 1.6 (M)
Each record here notes measured α-helix content of apo-hTf.
ASSAY_ENDPOINT: α-helix content of apo-hTf

MOLECULE: [Cl-].[Cl-].[V+4].c1cc[cH-]c1.c1cc[cH-]c1 [Cp2VCl2]
STUDY_SYSTEM: apo-human transferrin (apo-hTf) (Homo sapiens, UniProt P02787)
ASSAY_ENDPOINT: α-helix content of apo-hTf
RECORDED_RESULT: 26.5%
--
MOLECULE: [Cl][Zr+2][Cl].c1cc[cH-]c1.c1cc[cH-]c1 [Cp2ZrCl2]
STUDY_SYSTEM: apo-human transferrin (apo-hTf) (Homo sapiens, UniProt P02787)
ASSAY_ENDPOINT: α-helix content of apo-hTf
RECORDED_RESULT: 28.8%
--
MOLECULE: C1CCCC1.C1CCCC1.[Cl][Nb][Cl] [Cp2NbCl2]
STUDY_SYSTEM: apo-human transferrin (apo-hTf) (Homo sapiens, UniProt P02787)
ASSAY_ENDPOINT: α-helix content of apo-hTf
RECORDED_RESULT: 26.9%
--
MOLECULE: N.N.[Cl][Pt][Cl] [(NH3)2Pt(II)Cl2, cis-diamminedichloroplatinum (II), reference compound]
STUDY_SYSTEM: apo-human transferrin (apo-hTf) (Homo sapiens, UniProt P02787)
ASSAY_ENDPOINT: α-helix content of apo-hTf
RECORDED_RESULT: 28.3%
--
MOLECULE: C1CCCC1.C1CCCC1.[Cl][W][Cl] [Cp2WCl2]
STUDY_SYSTEM: apo-human transferrin (apo-hTf) (Homo sapiens, UniProt P02787)
ASSAY_ENDPOINT: α-helix content of apo-hTf
RECORDED_RESULT: 28.3%
